# system_under_test: SST2 (Homo sapiens)
# Construct: host or cells: PathHunter CHO-K1 SST2 cells
# Sequence (P30874 whole entry): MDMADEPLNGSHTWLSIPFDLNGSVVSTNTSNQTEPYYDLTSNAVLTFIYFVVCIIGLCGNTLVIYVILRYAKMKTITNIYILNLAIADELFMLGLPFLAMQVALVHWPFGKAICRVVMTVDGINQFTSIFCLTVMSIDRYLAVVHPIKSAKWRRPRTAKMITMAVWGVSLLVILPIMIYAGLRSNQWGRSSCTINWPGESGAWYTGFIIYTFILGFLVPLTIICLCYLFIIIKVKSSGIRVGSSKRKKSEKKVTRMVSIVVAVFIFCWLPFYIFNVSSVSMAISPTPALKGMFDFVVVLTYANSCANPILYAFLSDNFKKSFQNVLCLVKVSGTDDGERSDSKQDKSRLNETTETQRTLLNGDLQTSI
# method_summary: PathHunter CHO-K1 SST2 internalization assay
# Assay type: cell-based
# condition_details: PathHunter CHO-K1 SST2, 90 min; read-out: Internalization EC50
Starred links: 1 amine or outer side, 2 acyl side, 3 side chain; linkers in the order of their positions; H or OH if unused. Non-standard residues stand in square brackets, D forms with d. Residues, ends and D or L forms follow the SMILES beside them. *: point of attachment. X4 = Cc1cc(F)cc(-c2cnc(NCCNC(=O)CCOCCOCCOCCOCCC(=O)*)c(-c3nc4ccc(Cl)cc4[nH]3)c2N2CCC(N)CC2)c1; Dolaproine = CO[C@@H]([C@@H]1CCCN1)[C@@H](C)C(=O)O; Dil = CC[C@H](C)[C@H](NC)[C@@H](CC(=O)O)OC; PABC = O=C(OCc1ccc(N[*:1])cc1)[*:2]; X2 = C[C@@H](N*)[C@@H](O)c1ccccc1; Cya = N[C@@H](CS(=O)(=O)O)C(=O)O; Cit = NC(=O)NCCC[C@H](N)C(=O)O; NMeV = CN[C@H](C(=O)O)C(C)C
measurement_label: EC50 (nM)
Report the figure in nM without appending any unit label.

EC50 for `CC[C@H](C)[C@@H]([C@@H](CC(=O)N1CCC[C@H]1[C@H](OC)[C@@H](C)C(=O)N[C@H](C)[C@@H](O)c1ccccc1)OC)N(C)C(=O)[C@@H](NC(=O)[C@H](C(C)C)N(C)C(=O)OCc1ccc(NC(=O)[C@H](CCCNC(N)=O)NC(=O)[C@@H](NC(=O)CCCC(=O)N(C)CC(=O)NCCNc2ncc(-c3cc(C)cc(F)c3)c(N3CCC(N)CC3)c2-c2nc3ccc(Cl)cc3[nH]2)C(C)C)c(O[C@@H]2O[C@H](C(=O)O)[C@@H](O)[C@H](O)[C@H]2O)c1)C(C)C` is 2.3

Kindly note the recorded EC50 for `CC[C@H](C)[C@@H]([C@@H](CC(=O)N1CCC[C@H]1[C@H](OC)[C@@H](C)C(=O)N[C@H](C)[C@@H](O)c1ccccc1)OC)N(C)C(=O)[C@@H](NC(=O)[C@H](C(C)C)N(C)C(=O)OCc1ccc(O[C@@H]2O[C@H](C(=O)O)[C@@H](O)[C@H](O)[C@H]2O)c(NC(=O)[C@H](CCCNC(N)=O)NC(=O)[C@@H](NC(=O)CCOCCC(=O)NCCNc2ncc(-c3cc(C)cc(F)c3)c(N3CCC(N)CC3)c2-c2nc3ccc(Cl)cc3[nH]2)C(C)C)c1)C(C)C` , which is 2.5

What the record says about CC[C@H](C)[C@@H]([C@@H](CC(=O)N1CCC[C@H]1[C@H](OC)[C@@H](C)C(=O)N[C@H](C)[C@@H](O)c1ccccc1)OC)N(C)C(=O)[C@@H](NC(=O)[C@H](C(C)C)N(C)C(=O)OCc1ccc(NC(=O)[C@H](CCCNC(N)=O)NC(=O)[C@@H](NC(=O)[C@H](CS(=O)(=O)O)NC(=O)[C@H](CCC(=O)O)NC(=O)CCOCCOCCOCCOCCC(=O)NCCNc2ncc(-c3cc(C)cc(F)c3)c(N3CCC(N)CC3)c2-c2nc3ccc(Cl)cc3[nH]2)C(C)C)cc1)C(C)C [Compound 114] (X4-E[Cya]V[Cit][PABC][NMeV]V[Dil][Dolaproine]-X2) : EC50 is 10

The compound listed as CC[C@H](C)[C@@H]([C@@H](CC(=O)N1CCC[C@H]1[C@H](OC)[C@@H](C)C(=O)N[C@H](C)[C@@H](O)c1ccccc1)OC)N(C)C(=O)[C@@H](NC(=O)[C@H](C(C)C)N(C)C(=O)OCc1ccc(NC(=O)[C@H](CCCNC(N)=O)NC(=O)[C@@H](NC(=O)[C@H](CCC(N)=O)NC(=O)[C@H](CCC(=O)O)NC(=O)CCOCCOCCOCCOCCC(=O)NCCNc2ncc(-c3cc(C)cc(F)c3)c(N3CCC(N)CC3)c2-c2nc3ccc(Cl)cc3[nH]2)C(C)C)cc1)C(C)C [Compound 119] (X4-EQV[Cit][PABC][NMeV]V[Dil][Dolaproine]-X2) shows EC50 equal to 5.4

Reference for the values: patent US12134610B2
